Where do these numbers come from? They come from the supplement of paper PMC7125110.

B1: glmS ribozyme (parent)
chain: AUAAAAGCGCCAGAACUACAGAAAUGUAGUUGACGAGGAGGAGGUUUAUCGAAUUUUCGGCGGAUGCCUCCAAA

variants of: B1; test: self-cleavage kobs at 640 uM GlcN6P; higher = faster cleavage; RNA array; settings: with glucosamine-6-phosphate
Fewer inactive variants are shown than the library holds.
MEASURED ATTRIBUTE: self-cleavage kobs at 640 uM GlcN6P

Example cases with answers are listed next.
- U65G G66U: 0.000342 s⁻¹
- U31G G32U G40A A48C: < 1e-05 s⁻¹
- G7A A12G U31A C68G: 0.000116 s⁻¹
- A12C G29C A42C: < 1e-05 s⁻¹

Give measured self-cleavage kobs at 640 uM GlcN6P for every item shown.
1. C8G U45C
2. G9A C58G U65C
3. C8U A64G C67G

1. < 1e-05 s⁻¹
2. < 1e-05 s⁻¹
3. < 1e-05 s⁻¹

Hi team, please reply with self-cleavage kobs at 640 uM GlcN6P for each item in this list.
1. U45G U47A A52G C68G
2. U56A U65C
3. U45C U46C
4. G43U G62C C67A

< 1e-05 s⁻¹
0.000242 s⁻¹
0.000335 s⁻¹
< 1e-05 s⁻¹
